Entries and their measured MIC follow.
Tested on: K. pneumoniae MP-648
Assay: Broth dilution MIC determination (CLSI), K. pneumoniae MP-648
Assay type: cell-based
Conditions: Klebsiella pneumoniae, MP648; strain MP-648, broth dilution

// below: answered molecules
>>> reading("CO[C@]1(C)C[C@@H](C)CN(C)[C@H](C2CN(C(=O)CN(C)C)C2)[C@@H](C)OC(=O)C(C)(C)C(=O)[C@H](C)[C@H]1O[C@@H]1O[C@H](C)C[C@H](N(C)C)[C@H]1O")
"> 32 µg/mL"
>>> reading("CO[C@]1(C)C[C@@H](C)CN(C)[C@H](C2CN(C(=O)CCN(C)CC3CC3)C2)COC(=O)C(C)(C)C(=O)[C@H](C)[C@H]1O[C@@H]1O[C@H](C)C[C@H](N(C)C)[C@H]1O")
"> 32 µg/mL"

Next molecule, please.
Q: Which MIC is reported with K. pneumoniae MP-648 for this entry: `CCN(C)CC(C)(C)CC(=O)N1CC([C@@H]2COC(=O)C(C)(C)C(=O)[C@H](C)[C@@H](O[C@@H]3O[C@H](C)C[C@H](N(C)C)[C@H]3O)[C@](C)(OC)C[C@@H](C)CN2C)C1` ?
A: 4 to 32 µg/mL

* * *

Entries and their measured MIC follow.
Test system: K. pneumoniae MP-648
Test: Broth dilution MIC determination (CLSI), K. pneumoniae MP-648
Type: cell-based
Conditions: Klebsiella pneumoniae, MP648; strain MP-648, broth dilution

// below: answered compounds
>>> reading("CO[C@]1(C)C[C@@H](C)CN(C)[C@H](C2CN(CC3CC3)C2)[C@@H](C)OC(=O)C(C)(C)C(=O)[C@H](C)[C@H]1O[C@@H]1O[C@H](C)C[C@H](N(C)C)[C@H]1O [Compound 146]")
"> 32 µg/mL"
>>> reading("CO[C@]1(C)C[C@@H](C)CN(C)[C@@H](C2CCN(C[C@@H]3COC(=O)N3)CC2)CO[C@@H](O)C(C)(C)C(=O)[C@H](C)[C@H]1O[C@@H]1O[C@H](C)C[C@H](N(C)C)[C@H]1O [Compound 201]")
"> 32 µg/mL"
>>> reading("CO[C@]1(C)C[C@@H](C)CN(C)[C@H](C2CN(C(=O)CCCN(C)CC(C)C)C2)COC(=O)C(C)(C)C(=O)[C@H](C)[C@H]1O[C@@H]1O[C@H](C)C[C@H](N(C)C)[C@H]1O [Compound 178]")
"4 to 32 µg/mL"
>>> reading("CO[C@]1(C)C[C@@H](C)CN(C)[C@H](C2CN(CC(C)(C)C)C2)COC(=O)C(C)(C)C(=O)[C@H](C)[C@H]1O[C@@H]1O[C@H](C)C[C@H](N(C)C)[C@H]1O [Compound 114]")
"4 to 32 µg/mL"
>>> reading("CO[C@]1(C)C[C@@H](C)CN(C)[C@H](C2CN(C(=O)[C@H]3CCN(C)C3)C2)COC(=O)C(C)(C)C(=O)[C@H](C)[C@H]1O[C@@H]1O[C@H](C)C[C@H](N(C)C)[C@H]1O [Compound 168]")
"> 32 µg/mL"
>>> reading("CCCN1CC([C@@H]2[C@@H](C)OC(=O)C(C)(C)C(=O)[C@H](C)[C@@H](O[C@@H]3O[C@H](C)C[C@H](N(C)C)[C@H]3O)[C@](C)(OC)C[C@@H](C)CN2C)C1 [Compound 136]")
"> 32 µg/mL"
>>> reading("CO[C@]1(C)C[C@@H](C)CN(C)[C@H](C2CN(Cc3cncnc3)C2)COC(=O)C(C)(C)C(=O)[C@H](C)[C@H]1O[C@@H]1O[C@H](C)C[C@H](N(C)C)[C@H]1O [Compound 177]")
"> 32 µg/mL"
>>> reading("CO[C@]1(C)C[C@@H](C)CN(C)[C@@H](C2CCN(CC3CCC3)CC2)COC(=O)C(C)(C)C(=O)[C@H](C)[C@H]1O[C@@H]1O[C@H](C)C[C@H](N(C)C)[C@H]1O [Compound 69]")
"4 to 32 µg/mL"
>>> reading("CO[C@]1(C)C[C@@H](C)CN(C)[C@@H](C2CCN(C[C@@H]3COC(=O)N3C)CC2)CO[C@@H](O)C(C)(C)C(=O)[C@H](C)[C@H]1O[C@@H]1O[C@H](C)C[C@H](N(C)C)[C@H]1O [Compound 202]")
"> 32 µg/mL"
>>> reading("CO[C@]1(C)C[C@@H](C)CN(C)[C@H]([C@H]2C[C@@H](N(C)C)C2)COC(=O)C(C)(C)C(=O)[C@H](C)[C@H]1O[C@@H]1O[C@H](C)C[C@H](N(C)C)[C@H]1O [Compound 128]")
"4 to 32 µg/mL"

Q: Field request: MIC | item: CO[C@]1(C)C[C@@H](C)CN(C)[C@@H](C2CCN(C(C)[C@H]3COC(C)(C)O3)CC2)COC(=O)C(C)(C)C(=O)[C@H](C)[C@H]1O[C@@H]1O[C@H](C)C[C@H](N(C)C)[C@H]1O (mixture of isomers) [Compound 172]
A: < 4 µg/mL

Q: Also CO[C@]1(C)C[C@@H](C)CN(C)[C@H](C2CN(Cc3cc(C)on3)C2)COC(=O)C(C)(C)C(=O)[C@H](C)[C@H]1O[C@@H]1O[C@H](C)C[C@H](N(C)C)[C@H]1O [Compound 132] , if possible.
A: > 32 µg/mL

Q: Also CO[C@]1(C)C[C@@H](C)CN(C)[C@H](C2CN(C(=O)CN3CCCC3)C2)COC(=O)C(C)(C)C(=O)[C@H](C)[C@H]1O[C@@H]1O[C@H](C)C[C@H](N(C)C)[C@H]1O [Compound 138] , if possible.
A: 4 to 32 µg/mL

Q: Also CO[C@]1(C)C[C@@H](C)CN(C)[C@](C)(C2CCN(C)CC2)COC(=O)C(C)(C)C(=O)[C@H](C)[C@H]1O[C@@H]1O[C@H](C)C[C@H](N(C)C)[C@H]1O [Compound 198] , if possible.
A: > 32 µg/mL

Q: Also CCCN1CCC([C@]2(C)COC(=O)C(C)(C)C(=O)[C@H](C)[C@@H](O[C@@H]3O[C@H](C)C[C@H](N(C)C)[C@H]3O)[C@](C)(OC)C[C@@H](C)CN2C)CC1 [Compound 143] , if possible.
A: < 4 µg/mL

Q: Also CO[C@]1(C)C[C@@H](C)CN(C)[C@H]([C@H]2C[C@H](N(C)C)C2)COC(=O)C(C)(C)C(=O)[C@H](C)[C@H]1O[C@@H]1O[C@H](C)C[C@H](N(C)C)[C@H]1O [Compound 30] , if possible.
A: < 4 µg/mL

Q: Also CCN(C)CCCC(=O)N1CC([C@@H]2COC(=O)C(C)(C)C(=O)[C@H](C)[C@@H](O[C@@H]3O[C@H](C)C[C@H](N(C)C)[C@H]3O)[C@](C)(OC)C[C@@H](C)CN2C)C1 [Compound 135] , if possible.
A: 4 to 32 µg/mL

Q: Also CO[C@]1(C)C[C@@H](C)CN(C)[C@H](C2CN(Cc3cnn(C)c3)C2)COC(=O)C(C)(C)C(=O)[C@H](C)[C@H]1O[C@@H]1O[C@H](C)C[C@H](N(C)C)[C@H]1O [Compound 49] , if possible.
A: 4 to 32 µg/mL

Q: Also CO[C@]1(C)C[C@@H](C)CN(C)[C@H](C2CN(CC3CCCC3)C2)COC(=O)C(C)(C)C(=O)[C@H](C)[C@H]1O[C@@H]1O[C@H](C)C[C@H](N(C)C)[C@H]1O [Compound 103] , if possible.
A: 4 to 32 µg/mL
